All values here come from paper PMC10672575.

Form: system (UniProtKB P22303), quantity (pIC50), values below.
One number for each entry, as −log10 of the molar value.

Answered examples (2):
molecule	assayed.target	pIC50
CC[C@@H](C)[C@H]1C=C[C@H]2[C@H](O)[C@H](O)C[C@@H](C)[C@@H]2[C@@]1(C)C(=O)CCO [Eujavanicol A, eujavanicol A]	UniProtKB P22303	4.49
COc1cc(OC)c2c(=O)c(CO)c(C)oc2c1 [Compound 2]	UniProtKB P22303	4.47

// switching to the query molecule
Exam item: Recall the reported pIC50 of CC[C@@H](C)[C@H]1C=C[C@H]2[C@H](O)[C@H](OC(=O)/C=C(\C)CC(=O)O)C[C@@H](C)[C@@H]2[C@@]1(C)C(=O)CCO [Compound 7, trichoharzin] when tested on UniProtKB P22303.
Marked response: 4.42

---

Record form. Attribute: IC50. Fill in for each entry.
molecular target: AChE (Homo sapiens, UniProt P22303)
Sequence (P22303 32-614): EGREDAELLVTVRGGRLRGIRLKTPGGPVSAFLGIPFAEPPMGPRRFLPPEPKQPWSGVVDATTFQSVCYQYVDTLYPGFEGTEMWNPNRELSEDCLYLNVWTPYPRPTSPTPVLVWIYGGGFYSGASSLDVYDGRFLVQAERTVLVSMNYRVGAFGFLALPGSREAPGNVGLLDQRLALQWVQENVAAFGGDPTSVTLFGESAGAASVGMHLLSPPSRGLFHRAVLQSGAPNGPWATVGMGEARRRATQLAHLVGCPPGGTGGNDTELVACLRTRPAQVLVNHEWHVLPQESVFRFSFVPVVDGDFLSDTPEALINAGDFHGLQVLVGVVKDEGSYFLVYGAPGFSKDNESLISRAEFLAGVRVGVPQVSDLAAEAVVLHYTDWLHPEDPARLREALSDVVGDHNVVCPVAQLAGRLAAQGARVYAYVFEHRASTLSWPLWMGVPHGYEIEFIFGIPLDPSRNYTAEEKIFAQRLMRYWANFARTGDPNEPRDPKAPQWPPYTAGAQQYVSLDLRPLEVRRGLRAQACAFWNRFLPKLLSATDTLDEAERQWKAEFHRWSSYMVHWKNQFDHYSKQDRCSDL

molecule	assayed.target	value
CCC(C)C1C=CC2C(O)C(OC(=O)C=C(C)CC(=O)O)CC(C)C2C1(C)C(=O)CCO (stereo not drawn) [Compound 6, Tandyukisin J]	AChE (Homo sapiens, UniProt P22303)	40.2 µM

Batch request: IC50 for each of the following molecules.
1. CC[C@@H](C)[C@H]1C=C[C@H]2[C@H](O)[C@H](OC(=O)C/C(C)=C\C(=O)O)C[C@@H](C)[C@@H]2[C@@]1(C)C(=O)CCO [Compound 8, tandyukisin D]
2. COc1cc(O)c2c(=O)c(CO)c(C)oc2c1 [Compound 3]
3. CC[C@@H](C)[C@H]1C=C[C@H]2[C@H](O)[C@H](OC(=O)C/C(C)=C/C(=O)O)C[C@@H](C)[C@@H]2[C@@]1(C)C(=O)CCO [Compound 9, tandyukisin G]
4. CC[C@@H](C)[C@H]1C=C[C@H]2[C@H](OC(=O)C/C(C)=C\C(=O)O)[C@H](O)C[C@@H](C)[C@@H]2[C@@]1(C)C(=O)CCO [Compound 10, tandyukisin C]
5. COc1cc(O)c2c(=O)c(C3CC(O)C(=O)O3)c(C)oc2c1 (stereo not drawn) [Compound 1]

Marked response:
1. 77.9 µM
2. 20.6 µM
3. 43.6 µM
4. 50.9 µM
5. 38.6 µM

---

experiment: Cytotoxicity, MTT assay; assay type: cell-based; details: human, A549 lung cancer cells
endpoint.label: IC50 (µM)
Answers are plain numbers, in µM.

Exam item: // Input: COc1cc(O)c2c(=O)c(C3CC(O)C(=O)O3)c(C)oc2c1 (stereo not shown) . Output its IC50 only.
Marked response: 47.2

---

Values of MIC reported for Candida albicans appear below.
Give bare numbers, in µM.

# count of solved cases: 2
compound	endpoint.label	value
CC[C@@H](C)[C@H]1C=C[C@H]2[C@H](O)[C@H](OC(=O)/C=C(\C)CC(=O)O)C[C@@H](C)[C@@H]2[C@@]1(C)C(=O)CCO	MIC	50
CC[C@@H](C)[C@H]1C=C[C@H]2[C@H](O)[C@H](OC(=O)C/C(C)=C/C(=O)O)C[C@@H](C)[C@@H]2[C@@]1(C)C(=O)CCO	MIC	25

Please give MIC for each item listed below.
1. COc1cc(O)c2c(=O)c(CO)c(C)oc2c1
2. COc1cc(OC)c2c(=O)c(CO)c(C)oc2c1

Marked response:
1: 25; 2: 100

The following compounds each have a reported value; give each one's MIC.
1. CC[C@@H](C)[C@H]1C=C[C@H]2[C@H](O)[C@H](OC(=O)C/C(C)=C\C(=O)O)C[C@@H](C)[C@@H]2[C@@]1(C)C(=O)CCO
2. COc1cc(O)c2c(=O)c(C3CC(O)C(=O)O3)c(C)oc2c1 (stereo not shown)

Marked response:
[50, 50]

Exam item: Report the value of MIC obtained on Candida albicans for CC(=O)N1CCN(c2ccc(OCC3COC(Cn4ccnc4)(c4ccc(Cl)cc4Cl)O3)cc2)CC1 (stereo not shown) [Ketoconazole, reference compound] .
Marked response: 0.13

---

The compounds below have reported MIC for Candida albicans.
One number for each entry, in µM.

// below: answered compounds
compound	output.unit	MIC
CCC(C)C1C=CC2C(O)C(OC(=O)C=C(C)CC(=O)O)CC(C)C2C1(C)C(=O)CCO (stereo not drawn)	µM	25
CC[C@@H](C)[C@H]1C=C[C@H]2[C@H](OC(=O)C/C(C)=C\C(=O)O)[C@H](O)C[C@@H](C)[C@@H]2[C@@]1(C)C(=O)CCO	µM	25

Moving on to another compound below.
Exam item: // fetch MIC given entry "CC[C@@H](C)[C@H]1C=C[C@H]2[C@H](O)[C@H](O)C[C@@H](C)[C@@H]2[C@@]1(C)C(=O)CCO"
Marked response: 25
